- system tested: T1, FGFR2 kinase domain, mono-phosphorylated on Y657 (UniProt P21802-3 465-764, Y467F (worked out from the printed order of phosphorylation) | Y587F (worked …, phosphotyrosine at 657))
- T1 construct: FGFR2 (IIIb isoform) kinase domain, residues 465-764; numbers count on: FGFR2IIIb (C1 isoform, 822 residues); also called KD^pY1; source: E. coli BL21(DE3), purified (Talon, Superdex 75)
- T1 sequence (P21802 464-763 Y466F/Y586F/Y588F/Y657F/Y733F): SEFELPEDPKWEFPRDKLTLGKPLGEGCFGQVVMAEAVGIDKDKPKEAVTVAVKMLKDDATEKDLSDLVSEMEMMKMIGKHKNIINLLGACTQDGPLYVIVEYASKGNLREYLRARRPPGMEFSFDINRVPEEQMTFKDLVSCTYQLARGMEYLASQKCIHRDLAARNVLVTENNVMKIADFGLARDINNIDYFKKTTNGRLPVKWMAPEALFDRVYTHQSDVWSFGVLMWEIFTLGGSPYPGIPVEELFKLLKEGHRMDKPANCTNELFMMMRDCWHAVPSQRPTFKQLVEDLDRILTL
- procedure details: MST; synthetic JM or CT peptides in serial dilution against KD^pY1, 25 °C; 20 mM HEPES, 150 mM NaCl, 1 mM TCEP, 0.01% Tween 20, pH 7.5
- setup conditions: both partners purified
pKd: −log10 of the molar value.
observable: pKd

1) PAVHKLTKRIPLRRQVT (numbers count on: FGFR2IIIb (C1 isoform, 822 residues); source: synthetic peptide, bought: Genscript) [JM peptide 414-430] ... 4.43
2) KPDFSSQPAVHKLT (FGFR2 (IIIb isoform) juxtamembrane region, residues 407-420; numbers count on: FGFR2IIIb (C1 isoform, 822 residues); source: synthetic peptide, bought: Genscript) [JM peptide 407-420] ... 3.98
